- System: rabbit skeletal myofibrils (fast skeletal myofibrils)
- EXPERIMENT DESCRIPTION: Activation of fast skeletal myofibrils (PUMA assay, PK/LDH-coupled ATPase at pCa25)
- Type: biochemical
- CONDITION DETAILS: median AC1.4 class, procedure of Example 39
METRIC: Mean AC1.4

QUERY SMILES: CC(C)(Nc1ccc(-c2cc(C(N)=O)ccc2F)nn1)c1ncccc1Cl
METRIC: Mean AC1.4
RECORDED MEASUREMENT: B (B=1-10 uM)
--
QUERY SMILES: Fc1cccnc1C1(CNc2ccc(-c3ncccc3Cl)nn2)CCC1
METRIC: Mean AC1.4
RECORDED MEASUREMENT: C (C=10-20 uM)
--
QUERY SMILES: O=C(NCc1cnc(-c2ccc(NCC3(c4ncccc4F)CCC3)nn2)s1)c1cn[nH]n1
METRIC: Mean AC1.4
RECORDED MEASUREMENT: A (A=<1 uM)
--
QUERY SMILES: NC(=O)c1ccc(-c2ccc(NCC3(c4ncccc4F)CCC3)nn2)cc1O
METRIC: Mean AC1.4
RECORDED MEASUREMENT: B (B=1-10 uM)
--
QUERY SMILES: CS(=O)(=O)Nc1nccc(-c2ccc(NCC3(c4ncccc4F)CCC3)nn2)n1
METRIC: Mean AC1.4
RECORDED MEASUREMENT: D (D=>20 uM)
--
QUERY SMILES: COc1cccnc1C1(Nc2ccc(-c3cc(C(N)=O)ccc3F)nn2)CCC1
METRIC: Mean AC1.4
RECORDED MEASUREMENT: C (C=10-20 uM)
--
QUERY SMILES: Fc1cccnc1C1(CNc2ccc(-c3cnc(N4CCNCC4)nc3)nn2)CCC1
METRIC: Mean AC1.4
RECORDED MEASUREMENT: D (D=>20 uM)
--
QUERY SMILES: Cn1cc(C(N)=O)nc1-c1ccc(NCC2(c3ncccc3F)CCC2)nn1
METRIC: Mean AC1.4
RECORDED MEASUREMENT: D (D=>20 uM)
--
QUERY SMILES: C[C@H](N)C(=O)NCc1cnc(-c2ccc(NCC3(c4ncccc4F)CCC3)nn2)s1
METRIC: Mean AC1.4
RECORDED MEASUREMENT: A (A=<1 uM)
--
QUERY SMILES: CS(=O)(=O)Nc1n[nH]c2ccc(-c3ccc(NC[C@]4(c5ncccc5F)C[C@H](F)C4)nn3)cc12
METRIC: Mean AC1.4
RECORDED MEASUREMENT: A (A=<1 uM)
--
QUERY SMILES: COC(=O)NCc1cnc(-c2ccc(NCC3(c4ncccc4F)CCC3)nn2)s1
METRIC: Mean AC1.4
RECORDED MEASUREMENT: B (B=1-10 uM)

Reference source: patent US10076519B2
